# SYSTEM_UNDER_TEST: GST-Hu-p50 (Homo sapiens, UniProt P19838 7-356)
# Sequence (P19838 7-356): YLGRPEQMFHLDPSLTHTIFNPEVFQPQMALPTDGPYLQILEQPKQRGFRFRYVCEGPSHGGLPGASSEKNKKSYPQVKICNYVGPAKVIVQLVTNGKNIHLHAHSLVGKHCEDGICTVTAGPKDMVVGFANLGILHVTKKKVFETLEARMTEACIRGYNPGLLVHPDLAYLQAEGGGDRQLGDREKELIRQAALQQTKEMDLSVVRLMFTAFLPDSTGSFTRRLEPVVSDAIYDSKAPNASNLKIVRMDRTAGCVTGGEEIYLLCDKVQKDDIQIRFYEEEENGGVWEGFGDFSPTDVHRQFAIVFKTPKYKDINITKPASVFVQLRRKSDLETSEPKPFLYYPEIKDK
# PROTOCOL_NOTES: protein-binding microarray (PBM); PBM: ~300 nM protein, 6 mM HEPES pH 7.8, 80 mM KCl, 0.5 mM EDTA, 0.5 mM EGTA, 6% glycerol, 35 ng/ul poly-dIdC, 1% milk, 1 h, room temperature; high values mean tight binding
# STUDY_CONDITIONS: dsDNA, one strand shown
Mark each entry true if its binding signal sits below 4 z-score, and false for all others.

CCGATTAACATCAGGGGATTGCATGATGTTAATCGGGTCTTGATTCGCTTGACGCTGCTG	false
CCGATTAACATCAGGATTTCCCATGATGTTAATCGGGTCTTGATTCGCTTGACGCTGCTG	true
CCGATTAACATCAGGGGGATCTATGATGTTAATCGGGTCTTGATTCGCTTGACGCTGCTG	false
CCGATTAACATCAAGGTATTCCCTGATGTTAATCGGGTCTTGATTCGCTTGACGCTGCTG	true

Lab note: confirm whether the reported binding signal for this sequence is below 4 z-score, equality not counting. sequence: CCGATTAACATCAGGGAATCCCATGATGTTAATCGGGTCTTGATTCGCTTGACGCTGCTG
false

----------
# SYSTEM_UNDER_TEST: GST-Nv-NF-kB (Cys allele) (Nematostella vectensis, UniProt E5G601 2-411)
# Sequence: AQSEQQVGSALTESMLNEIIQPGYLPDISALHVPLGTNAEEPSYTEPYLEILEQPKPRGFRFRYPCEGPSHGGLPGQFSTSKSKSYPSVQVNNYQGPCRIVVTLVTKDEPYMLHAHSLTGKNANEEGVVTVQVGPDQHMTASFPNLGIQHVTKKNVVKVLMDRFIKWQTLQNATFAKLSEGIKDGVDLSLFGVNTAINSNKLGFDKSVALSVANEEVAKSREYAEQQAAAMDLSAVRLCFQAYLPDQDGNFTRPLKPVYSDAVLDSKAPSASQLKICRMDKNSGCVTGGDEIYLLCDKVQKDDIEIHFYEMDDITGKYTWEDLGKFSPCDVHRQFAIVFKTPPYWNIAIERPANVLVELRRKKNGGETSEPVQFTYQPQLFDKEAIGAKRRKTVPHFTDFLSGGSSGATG
# PROTOCOL_NOTES: protein-binding microarray (PBM); PBM: ~300 nM protein, 6 mM HEPES pH 7.8, 80 mM KCl, 0.5 mM EDTA, 0.5 mM EGTA, 6% glycerol, 35 ng/ul poly-dIdC, 1% milk, 1 h, room temperature; Ap Aiptasia and Nv Nematostella (sea anemones) / Co Capsaspora / Aq Amphimedon (sponge) / Dm Drosophila / Hu human; RHD is the Rel homology domain; high values mean tight binding
# STUDY_CONDITIONS: dsDNA, one strand shown
Note to self: use Y only for binding signal readings below 6 z-score; a reading exactly at 6 z-score still gets N.

// below: answered sequences
CCGATTAACATCAGGGATAACCCTGATGTTAATCGGGTCTTGATTCGCTTGACGCTGCTG	Y
CCGATTAACATCAGGGGAAAGTATGATGTTAATCGGGTCTTGATTCGCTTGACGCTGCTG	N
CCGATTAACATCATGGGGGAAAATGATGTTAATCGGGTCTTGATTCGCTTGACGCTGCTG	N
CCGATTAACATCAAGGGCATTCCTGATGTTAATCGGGTCTTGATTCGCTTGACGCTGCTG	Y
CCGATTAACATCAAGAAAATCCCTGATGTTAATCGGGTCTTGATTCGCTTGACGCTGCTG	Y
CCGATTAACATCACGGGAAAATCTGATGTTAATCGGGTCTTGATTCGCTTGACGCTGCTG	Y

Input CCGATTAACATCACTTTTTCCCCTGATGTTAATCGGGTCTTGATTCGCTTGACGCTGCTG ; condition: binding signal strictly below 6 z-score. Does it hold?
N

Does CCGATTAACATCAGGGGGATACCTGATGTTAATCGGGTCTTGATTCGCTTGACGCTGCTG have binding signal strictly under 6 z-score?
N

Input CCGATTAACATCAGGGGAACCACTGATGTTAATCGGGTCTTGATTCGCTTGACGCTGCTG ; condition: binding signal strictly below 6 z-score. Does it hold?
N

Please determine if CCGATTAACATCAAATTCCCGCCTGATGTTAATCGGGTCTTGATTCGCTTGACGCTGCTG is below 6 z-score in terms of binding signal.
Y

For CCGATTAACATCAAGGGGGGATATGATGTTAATCGGGTCTTGATTCGCTTGACGCTGCTG , is the recorded binding signal below the cut-off of 6 z-score?
Y

Take the sequence CCGATTAACATCACGAAACCCCCTGATGTTAATCGGGTCTTGATTCGCTTGACGCTGCTG and say whether its binding signal is less than 6 z-score.
N

Report whether reported binding signal is lower than 6 z-score (strictly) for CCGATTAACATCAAAATTTTCCCTGATGTTAATCGGGTCTTGATTCGCTTGACGCTGCTG
N

Input CCGATTAACATCAACTGGGAAAATGATGTTAATCGGGTCTTGATTCGCTTGACGCTGCTG ; condition: binding signal strictly below 6 z-score. Does it hold?
Y

Regarding CCGATTAACATCAAGGGAACTCCTGATGTTAATCGGGTCTTGATTCGCTTGACGCTGCTG , kindly confirm whether its binding signal is beneath 6 z-score.
Y
